# EXPERIMENTAL TARGET: human Nav 1.5 channels stably expressed in HEK 293 cells (Homo sapiens)
# Construct: expressed in transfected cells; host or cells: HEK 293
# Sequence (Q14524 whole entry): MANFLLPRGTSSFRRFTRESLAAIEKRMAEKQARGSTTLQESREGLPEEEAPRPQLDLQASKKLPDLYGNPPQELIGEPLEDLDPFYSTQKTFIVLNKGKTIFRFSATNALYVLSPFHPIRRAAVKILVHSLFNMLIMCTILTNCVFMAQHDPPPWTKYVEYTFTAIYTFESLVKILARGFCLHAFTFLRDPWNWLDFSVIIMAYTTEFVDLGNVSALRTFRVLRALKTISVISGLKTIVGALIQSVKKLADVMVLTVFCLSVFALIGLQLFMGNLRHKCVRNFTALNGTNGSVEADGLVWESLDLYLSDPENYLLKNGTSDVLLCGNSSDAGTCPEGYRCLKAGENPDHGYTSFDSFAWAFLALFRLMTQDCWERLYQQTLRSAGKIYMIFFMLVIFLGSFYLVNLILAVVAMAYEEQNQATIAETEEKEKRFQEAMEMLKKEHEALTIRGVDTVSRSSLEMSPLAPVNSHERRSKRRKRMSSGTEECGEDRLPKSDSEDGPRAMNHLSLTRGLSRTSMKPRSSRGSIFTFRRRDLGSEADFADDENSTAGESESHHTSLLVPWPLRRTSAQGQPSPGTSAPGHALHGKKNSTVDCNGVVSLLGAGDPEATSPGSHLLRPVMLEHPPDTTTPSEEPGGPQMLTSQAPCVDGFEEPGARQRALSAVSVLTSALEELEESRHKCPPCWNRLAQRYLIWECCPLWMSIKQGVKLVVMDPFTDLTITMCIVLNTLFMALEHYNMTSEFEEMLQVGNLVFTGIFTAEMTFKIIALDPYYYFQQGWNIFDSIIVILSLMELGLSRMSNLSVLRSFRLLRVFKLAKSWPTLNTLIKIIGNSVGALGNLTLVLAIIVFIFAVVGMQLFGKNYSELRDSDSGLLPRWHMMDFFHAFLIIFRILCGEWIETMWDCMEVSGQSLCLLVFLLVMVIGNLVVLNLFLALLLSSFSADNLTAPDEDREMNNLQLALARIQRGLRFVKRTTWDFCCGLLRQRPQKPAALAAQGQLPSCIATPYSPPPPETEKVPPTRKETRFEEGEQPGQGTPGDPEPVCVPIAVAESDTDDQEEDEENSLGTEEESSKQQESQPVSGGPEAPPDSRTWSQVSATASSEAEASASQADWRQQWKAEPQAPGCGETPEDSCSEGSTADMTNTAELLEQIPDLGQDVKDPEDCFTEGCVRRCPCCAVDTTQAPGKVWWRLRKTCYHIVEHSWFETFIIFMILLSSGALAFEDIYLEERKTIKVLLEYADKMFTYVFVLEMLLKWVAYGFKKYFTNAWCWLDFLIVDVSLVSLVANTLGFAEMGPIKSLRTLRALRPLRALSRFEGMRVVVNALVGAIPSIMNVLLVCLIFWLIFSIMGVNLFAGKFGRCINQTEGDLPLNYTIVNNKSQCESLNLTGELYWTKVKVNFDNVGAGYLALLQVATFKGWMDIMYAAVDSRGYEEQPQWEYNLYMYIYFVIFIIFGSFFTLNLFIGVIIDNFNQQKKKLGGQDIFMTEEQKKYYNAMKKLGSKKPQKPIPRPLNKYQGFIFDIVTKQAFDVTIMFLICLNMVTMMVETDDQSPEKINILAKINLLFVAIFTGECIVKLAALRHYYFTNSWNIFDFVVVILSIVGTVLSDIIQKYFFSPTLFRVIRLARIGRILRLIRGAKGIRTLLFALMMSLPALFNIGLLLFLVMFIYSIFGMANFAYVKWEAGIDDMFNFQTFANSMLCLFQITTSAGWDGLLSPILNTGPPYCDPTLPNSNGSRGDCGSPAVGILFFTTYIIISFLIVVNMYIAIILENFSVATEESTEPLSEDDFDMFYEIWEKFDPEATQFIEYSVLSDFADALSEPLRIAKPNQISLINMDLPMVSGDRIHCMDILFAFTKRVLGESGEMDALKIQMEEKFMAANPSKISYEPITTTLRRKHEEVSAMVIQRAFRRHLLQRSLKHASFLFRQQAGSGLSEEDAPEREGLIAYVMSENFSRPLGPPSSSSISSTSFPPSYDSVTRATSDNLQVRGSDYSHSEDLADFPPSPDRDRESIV
# PROCEDURE DETAILS: IonWorks Quattro automated patch-clamp, inactivated state block of Nav 1.5 (reported as ratio to Nav 1.7 potency)
# Type: cell-based
# MEASUREMENT CONTEXT: selectivity for Nav 1.7 over Nav 1.5, both by IonWorks
Give ratio of Nav 1.7 : Nav 1.5 potency (IonWorks) for every item shown.

Return reported ratio of Nav 1.7 : Nav 1.5 potency (IonWorks); argument: O=S(=O)(Nc1nccs1)c1cc(Cl)c(NCCCCNC2CNCC(c3ccccc3)C2)cc1F (stereo not drawn) [Ex 1-31] > 890

Return reported ratio of Nav 1.7 : Nav 1.5 potency (IonWorks); argument: N#C[C@H]1CN[C@H](CNCCCCNc2cc(F)c(S(=O)(=O)Nc3nccs3)cc2Cl)C1 [Ex 8-7] > 380

Return reported ratio of Nav 1.7 : Nav 1.5 potency (IonWorks); argument: NC[C@H]1CCN1CCCCNc1cc(F)c(S(=O)(=O)Nc2ncns2)cc1Cl [Ex 16-02] > 1650

Return reported ratio of Nav 1.7 : Nav 1.5 potency (IonWorks); argument: COc1cccc(CC2(CNCCCCNc3cc(F)c(S(=O)(=O)Nc4nccs4)cc3Cl)CCCN2)c1 (stereo not drawn) [Ex 1-34] > 510

Return reported ratio of Nav 1.7 : Nav 1.5 potency (IonWorks); argument: NCC(F)CNCCCCNc1cc(F)c(S(=O)(=O)Nc2ncc(F)s2)cc1Cl (stereo not drawn) [Ex 16-46] > 970

Return reported ratio of Nav 1.7 : Nav 1.5 potency (IonWorks); argument: O=S(=O)(Nc1ncc(F)s1)c1cc(Cl)c(NCCCCN2C[C@H]3CCCN[C@H]3C2)cc1F [Ex 16-23] > 2357

Return reported ratio of Nav 1.7 : Nav 1.5 potency (IonWorks); argument: O=S(=O)(Nc1nccs1)c1cc(Cl)c(NCCCCNC[C@@H]2CC(F)(F)CN2)cc1F [Ex 8-2] 460

Return reported ratio of Nav 1.7 : Nav 1.5 potency (IonWorks); argument: NC1CCN(CCCCNc2cc(F)c(S(=O)(=O)Nc3nccs3)cc2Cl)CC1 [Ex 1-49] > 1000

Return reported ratio of Nav 1.7 : Nav 1.5 potency (IonWorks); argument: CN[C@@H]1CCN(CCCCNc2cc(F)c(S(=O)(=O)Nc3ncns3)cc2Cl)C1 [Ex 16-03] 1930

Return reported ratio of Nav 1.7 : Nav 1.5 potency (IonWorks); argument: O=S(=O)(Nc1nccs1)c1cc(Cl)c(NCCCCCNCC2CCCNC2)cc1F (stereo not drawn) [Ex 9-04] > 1320

Return reported ratio of Nav 1.7 : Nav 1.5 potency (IonWorks); argument: O=S(=O)(Nc1nccs1)c1cc(Cl)c(NCC2CCCC(NCC3CCCN3)C2)cc1F (single isomer, unassigned) [Ex 6-7 Enantiomer B] > 940

Return reported ratio of Nav 1.7 : Nav 1.5 potency (IonWorks); argument: N[C@H]1CCCN(CCCCNc2cc(F)c(S(=O)(=O)Nc3nccs3)cc2Cl)C1 [Ex 1-37] > 340

Return reported ratio of Nav 1.7 : Nav 1.5 potency (IonWorks); argument: O=S(=O)(Nc1nccs1)c1cc(Cl)c(NCCCCCNCC2CCN2)cc1F (stereo not drawn) [Ex 9-06] > 160

Return reported ratio of Nav 1.7 : Nav 1.5 potency (IonWorks); argument: O=S(=O)(Nc1nccs1)c1cc(Cl)c(NCCCCNCC2CCC(c3ccccc3)CN2)cc1F (stereo not drawn) [Ex 8-14] 2290

Return reported ratio of Nav 1.7 : Nav 1.5 potency (IonWorks); argument: O=S(=O)(Nc1nccs1)c1cc(Cl)c(NCCCCNC[C@@H]2C[C@@H](c3ccccc3)CN2)cc1F [Ex 8-4] > 1030

Return reported ratio of Nav 1.7 : Nav 1.5 potency (IonWorks); argument: NCC1CCN(CCCCNc2cc(F)c(S(=O)(=O)Nc3nccs3)cc2Cl)C1 (stereo not drawn) [Ex 1-47] > 1500

Return reported ratio of Nav 1.7 : Nav 1.5 potency (IonWorks); argument: COc1ccc(CC2(CNCCCCNc3cc(F)c(S(=O)(=O)Nc4nccs4)cc3Cl)CCCN2)cc1 (single isomer, unassigned) [Ex 1-16 Enantiomer B] 185

Return reported ratio of Nav 1.7 : Nav 1.5 potency (IonWorks); argument: O=S(=O)(Nc1nccs1)c1cc(Cl)c(NCCCCN2CCC3CNCC3C2)cc1F (stereo not drawn) [Ex 1-48] > 1434
